# Measurement Target: Integrin alpha-V/beta-5 (Homo sapiens, UniProt P06756+P18084)
# Sequence (P06756 31-889 limits assumed): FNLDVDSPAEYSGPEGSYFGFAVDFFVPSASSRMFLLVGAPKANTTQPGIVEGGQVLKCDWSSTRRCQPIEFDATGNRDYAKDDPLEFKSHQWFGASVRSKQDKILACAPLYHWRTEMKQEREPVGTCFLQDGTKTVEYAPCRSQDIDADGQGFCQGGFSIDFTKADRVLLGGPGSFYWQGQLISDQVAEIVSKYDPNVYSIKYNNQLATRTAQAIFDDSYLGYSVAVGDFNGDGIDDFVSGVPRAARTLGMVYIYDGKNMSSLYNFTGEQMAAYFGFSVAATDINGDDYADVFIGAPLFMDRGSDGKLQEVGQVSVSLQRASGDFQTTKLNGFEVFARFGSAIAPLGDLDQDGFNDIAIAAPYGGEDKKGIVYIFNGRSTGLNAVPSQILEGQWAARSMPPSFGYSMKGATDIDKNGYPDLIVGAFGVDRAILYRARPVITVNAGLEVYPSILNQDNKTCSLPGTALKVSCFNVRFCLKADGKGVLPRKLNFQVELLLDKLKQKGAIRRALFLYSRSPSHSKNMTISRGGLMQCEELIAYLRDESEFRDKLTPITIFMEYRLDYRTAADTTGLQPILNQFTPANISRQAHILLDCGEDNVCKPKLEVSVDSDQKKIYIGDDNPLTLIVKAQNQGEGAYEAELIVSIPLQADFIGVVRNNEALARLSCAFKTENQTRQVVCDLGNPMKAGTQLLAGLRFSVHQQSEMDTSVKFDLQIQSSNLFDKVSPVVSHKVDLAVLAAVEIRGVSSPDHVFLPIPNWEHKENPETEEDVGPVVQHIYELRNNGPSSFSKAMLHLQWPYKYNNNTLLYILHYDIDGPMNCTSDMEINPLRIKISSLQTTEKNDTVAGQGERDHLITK
# Sequence (P06756 891-1048 limits assumed): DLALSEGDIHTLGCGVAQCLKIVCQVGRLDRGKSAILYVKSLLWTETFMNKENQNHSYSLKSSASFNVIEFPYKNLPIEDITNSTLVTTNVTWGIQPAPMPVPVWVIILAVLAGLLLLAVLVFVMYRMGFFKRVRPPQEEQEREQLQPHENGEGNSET
# Sequence (P18084 24-799 limits assumed): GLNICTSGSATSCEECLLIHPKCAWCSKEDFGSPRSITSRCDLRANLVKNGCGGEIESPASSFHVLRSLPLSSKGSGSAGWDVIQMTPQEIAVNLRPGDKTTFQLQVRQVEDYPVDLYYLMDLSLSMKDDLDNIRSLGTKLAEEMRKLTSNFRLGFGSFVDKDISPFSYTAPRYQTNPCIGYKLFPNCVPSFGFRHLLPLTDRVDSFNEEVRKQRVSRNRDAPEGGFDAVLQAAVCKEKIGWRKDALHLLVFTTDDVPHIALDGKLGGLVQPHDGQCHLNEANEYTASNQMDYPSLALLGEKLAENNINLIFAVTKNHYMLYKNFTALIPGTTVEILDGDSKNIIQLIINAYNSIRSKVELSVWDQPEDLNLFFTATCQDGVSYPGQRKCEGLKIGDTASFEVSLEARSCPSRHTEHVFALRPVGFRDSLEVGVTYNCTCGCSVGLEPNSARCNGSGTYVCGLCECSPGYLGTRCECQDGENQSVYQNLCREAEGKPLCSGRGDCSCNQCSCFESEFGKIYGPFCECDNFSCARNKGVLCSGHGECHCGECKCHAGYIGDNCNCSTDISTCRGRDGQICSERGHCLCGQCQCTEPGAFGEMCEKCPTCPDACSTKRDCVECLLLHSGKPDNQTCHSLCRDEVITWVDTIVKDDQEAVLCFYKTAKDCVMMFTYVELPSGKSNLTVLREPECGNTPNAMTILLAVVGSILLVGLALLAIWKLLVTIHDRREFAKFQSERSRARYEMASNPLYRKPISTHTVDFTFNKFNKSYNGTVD
# Assay Name: Inhibition of integrin alphavbeta5 (unknown origin)-mediated K562 cell adhesion to vitronectin coated surface by fluorescence analysis
pIC50: −log10 of the molar value.
Classes based on pIC50: Low (below 6), Medium (6 to below 7), High (7 or more)

Reference set, count: 3
Compound	Group Label
O=C(O)C[C@@H](NC(=O)CCCCc1ccc2c(n1)NCCC2)c1cccc(C(F)(F)F)c1	Low
O=C(O)CC(NC(=O)CCCCc1ccc2c(n1)NCCC2)c1cc(Cl)cc(Cl)c1 (racemic)	Medium
Cc1cc(C)cc(C(CC(=O)O)NC(=O)CCCCc2ccc3c(n2)NCCC3)c1 (racemic)	Medium

Here's the next entry for you.
Q: Which category fits this record: CS(=O)(=O)c1ccc(C(CC(=O)O)NC(=O)CCCCc2ccc3c(n2)NCCC3)cc1 (racemic)
Result: Medium

###

# Measurement Target: Integrin alpha-V/beta-8 (Homo sapiens, UniProt P06756+P26012)
# Sequence (P06756 31-889 limits assumed): as the sequence (P06756 31-889 limits assumed) above
# Sequence (P06756 891-1048 limits assumed): as the sequence (P06756 891-1048 limits assumed) above
# Sequence (P26012 43-769 limits assumed): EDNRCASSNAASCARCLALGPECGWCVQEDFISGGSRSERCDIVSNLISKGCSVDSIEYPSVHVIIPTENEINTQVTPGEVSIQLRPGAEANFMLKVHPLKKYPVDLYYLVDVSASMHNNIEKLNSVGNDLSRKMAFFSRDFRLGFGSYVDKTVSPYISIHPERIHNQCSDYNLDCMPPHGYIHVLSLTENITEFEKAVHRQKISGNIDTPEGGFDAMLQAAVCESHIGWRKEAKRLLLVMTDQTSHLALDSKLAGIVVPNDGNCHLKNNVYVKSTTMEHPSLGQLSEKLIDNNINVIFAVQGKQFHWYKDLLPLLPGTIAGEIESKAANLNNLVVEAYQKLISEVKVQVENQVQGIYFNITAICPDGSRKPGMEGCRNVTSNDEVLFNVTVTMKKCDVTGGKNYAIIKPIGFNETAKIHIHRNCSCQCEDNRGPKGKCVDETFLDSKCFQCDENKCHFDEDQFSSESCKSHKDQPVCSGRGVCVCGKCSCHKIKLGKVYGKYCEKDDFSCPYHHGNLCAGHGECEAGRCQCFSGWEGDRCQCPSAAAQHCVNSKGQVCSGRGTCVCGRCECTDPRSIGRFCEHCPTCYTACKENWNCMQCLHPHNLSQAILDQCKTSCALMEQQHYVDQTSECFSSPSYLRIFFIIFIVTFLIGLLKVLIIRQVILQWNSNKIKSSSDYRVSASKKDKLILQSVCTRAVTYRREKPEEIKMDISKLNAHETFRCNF
# Assay Name: Inhibition of integrin alphavbeta8 (unknown origin)-mediated K562 cell adhesion to LAPb1 coated surface by fluorescence analysis
Form field: pIC50 (one value per entry).
// pIC50 is dimensionless: -log10 of concentration (M)

Check out these entries, answers already filled in.
Compound	Recorded Number
N#Cc1ccc(C(CC(=O)O)NC(=O)CCCCc2ccc3c(n2)NCCC3)cc1 (racemic)	6.10
O=C(O)CC(NC(=O)CCCCc1ccc2c(n1)NCCC2)c1ccc(F)cc1 (racemic)	6.30
O=C(O)CC(NC(=O)CCCCc1ccc2c(n1)NCCC2)c1cccc(F)c1 (racemic)	5.80
COc1cccc(C(CC(=O)O)NC(=O)CCCCc2ccc3c(n2)NCCC3)c1 (racemic)	6.30
O=C(O)CC(NC(=O)CCCCc1ccc2c(n1)NCCC2)c1ccc(Cl)c(C(F)(F)F)c1 (racemic)	6.60

Q: Need pIC50, item Cc1cccc(C(CC(=O)O)NC(=O)CCCCc2ccc3c(n2)NCCC3)c1 (racemic)
Result: 6.20

Q: Need pIC50, item COc1ccc(C(CC(=O)O)NC(=O)CCCCc2ccc3c(n2)NCCC3)cc1OC (racemic)
Result: 6.40

###

# Measurement Target: Integrin alpha-V/beta-5 (Homo sapiens, UniProt P06756+P18084)
# Assay Name: Inhibition of integrin alphavbeta5 (unknown origin)-mediated K562 cell adhesion to vitronectin coated surface by fluorescence analysis
Form field: IC50 (one value per entry).
The reply should be a number in nM, with the unit left off.

Check out these entries, answers already filled in.
Molecule	IC50 / nM
COc1cccc(C(CC(=O)O)NC(=O)CCCCc2ccc3c(n2)NCCC3)c1 (racemic)	63.1
O=C(O)CC(NC(=O)CCCCc1ccc2c(n1)NCCC2)c1ccc(Cl)cc1 (racemic)	126
O=C(O)CC(NC(=O)CCCCc1ccc2c(n1)NCCC2)c1ccccc1F (racemic)	100
O=C(O)CC(NC(=O)CCCCc1ccc2c(n1)NCCC2)c1cccc(C(F)(F)F)c1 (racemic)	39.8

Q: Need IC50, item O=C(O)CC(NC(=O)CCCCc1ccc2c(n1)NCCC2)c1cccc(Cl)c1Cl (racemic)
Result: 501

Q: Need IC50, item COc1ccccc1C(CC(=O)O)NC(=O)CCCCc1ccc2c(n1)NCCC2 (racemic)
Result: 501

Q: Need IC50, item N#Cc1cccc(C(CC(=O)O)NC(=O)CCCCc2ccc3c(n2)NCCC3)c1 (racemic)
Result: 39.8

Q: Need IC50, item Cc1cccc(C(CC(=O)O)NC(=O)CCCCc2ccc3c(n2)NCCC3)c1 (racemic)
Result: 50.1

Q: Need IC50, item O=C(O)CC(NC(=O)CCCCc1ccc2c(n1)NCCC2)c1ccc(Cl)c(C(F)(F)F)c1 (single isomer, unassigned; enantiomer 1)
Result: 63.1

Q: Need IC50, item O=C(O)CC(NC(=O)CCCCc1ccc2c(n1)NCCC2)c1ccc(F)cc1 (racemic)
Result: 63.1

Q: Need IC50, item N#Cc1ccc(C(CC(=O)O)NC(=O)CCCCc2ccc3c(n2)NCCC3)cc1 (racemic)
Result: 398

Q: Need IC50, item O=C(O)CC(NC(=O)CCCCc1ccc2c(n1)NCCC2)c1ccccc1Cl (racemic)
Result: 1580

Q: Need IC50, item O=C(O)CC(NC(=O)CCCCc1ccc2c(n1)NCCC2)c1ccc(C(F)(F)F)cc1 (racemic)
Result: 316

Q: Need IC50, item COc1ccc(C(CC(=O)O)NC(=O)CCCCc2ccc3c(n2)NCCC3)cc1OC (racemic)
Result: 63.1

###

# Measurement Target: Integrin alpha-V/beta-8 (Homo sapiens, UniProt P06756+P26012)
# Assay Name: Inhibition of integrin alphavbeta8 (unknown origin)-mediated K562 cell adhesion to LAPb1 coated surface by fluorescence analysis
Experimental Readout: IC50

Check out these entries, answers already filled in.
Compound	IC50
O=C(O)CC(NC(=O)CCCCc1ccc2c(n1)NCCC2)c1ccccc1Cl (racemic)	> 10 µM
O=C(O)CC(NC(=O)CCCCc1ccc2c(n1)NCCC2)c1ccc(Cl)c(C(F)(F)F)c1 (single isomer, unassigned; enantiomer 2)	> 10 µM

Q: Need IC50, item O=C(O)C[C@@H](NC(=O)CCCCc1ccc2c(n1)NCCC2)c1cccc(C(F)(F)F)c1
Result: > 10 µM
